Quick reference: koff of the listed items.
measurement.target: T1, human FcRn/b2M (human, UniProt P61769 21-119, biotinylated)
T1 construct: bought recombinant biotinylated protein (ACRO FCM-H82W4 or Immunitrack ITF01); also called hFcRn; hFcRn/hb2M
T1 sequence (chain, as listed by the source limits assumed, chain 1 of 2): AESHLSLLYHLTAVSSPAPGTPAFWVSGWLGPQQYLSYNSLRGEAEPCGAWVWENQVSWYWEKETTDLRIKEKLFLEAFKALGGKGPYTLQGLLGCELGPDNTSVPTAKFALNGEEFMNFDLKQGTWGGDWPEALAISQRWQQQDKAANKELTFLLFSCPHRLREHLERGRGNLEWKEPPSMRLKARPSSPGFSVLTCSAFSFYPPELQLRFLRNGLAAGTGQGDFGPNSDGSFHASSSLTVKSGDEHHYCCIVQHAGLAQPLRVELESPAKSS
T1 sequence (P61769 21-119 limits assumed, chain 2 of 2): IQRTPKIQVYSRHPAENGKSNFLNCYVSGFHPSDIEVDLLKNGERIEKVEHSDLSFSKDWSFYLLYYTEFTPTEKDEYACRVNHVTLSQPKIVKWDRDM
test.method.notes: SPR pH 7.4;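 also: surface plasmon resonance kinetics, periplasmic extracts diluted 1:10 flowed over immobilized target at 25 °C, 120 s association then 600–3600 s dissociation, buffer with 150 mM NaCl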
measured.parameter: koff (s⁻¹)

• T0263018B11 L100aM (VHH, name in Kabat numbering, FLAG3-His6 tagged) VHH: EVQLVESGGGVVQPGGSLRLSCAASGFTFSSYAMYWVRQAPGKGLEWVSAISSGGGSTDYADSVKGRFTISRDNSKNTLYLQMNSLRPEDTALYYCAADTLYTSMTWYSYWGQGTLVTVSS = 0.62
• T0263018B11 S30N (VHH, name in Kabat numbering, FLAG3-His6 tagged) VHH: EVQLVESGGGVVQPGGSLRLSCAASGFTFNSYAMYWVRQAPGKGLEWVSAISSGGGSTDYADSVKGRFTISRDNSKNTLYLQMNSLRPEDTALYYCAADTLYTSLTWYSYWGQGTLVTVSS = 0.082
• T0263018B11 W100cF (VHH, name in Kabat numbering, FLAG3-His6 tagged) VHH: EVQLVESGGGVVQPGGSLRLSCAASGFTFSSYAMYWVRQAPGKGLEWVSAISSGGGSTDYADSVKGRFTISRDNSKNTLYLQMNSLRPEDTALYYCAADTLYTSLTFYSYWGQGTLVTVSS = 0.16
• T0263018B11 S52H (VHH, name in Kabat numbering, FLAG3-His6 tagged) VHH: EVQLVESGGGVVQPGGSLRLSCAASGFTFSSYAMYWVRQAPGKGLEWVSAIHSGGGSTDYADSVKGRFTISRDNSKNTLYLQMNSLRPEDTALYYCAADTLYTSLTWYSYWGQGTLVTVSS = 0.15
• T0263018B11 W100cQ (VHH, name in Kabat numbering, FLAG3-His6 tagged) VHH: EVQLVESGGGVVQPGGSLRLSCAASGFTFSSYAMYWVRQAPGKGLEWVSAISSGGGSTDYADSVKGRFTISRDNSKNTLYLQMNSLRPEDTALYYCAADTLYTSLTQYSYWGQGTLVTVSS = 0.5
• T0263018B11 S52aV (VHH, name in Kabat numbering, FLAG3-His6 tagged) VHH: EVQLVESGGGVVQPGGSLRLSCAASGFTFSSYAMYWVRQAPGKGLEWVSAISVGGGSTDYADSVKGRFTISRDNSKNTLYLQMNSLRPEDTALYYCAADTLYTSLTWYSYWGQGTLVTVSS = 0.081
• T0263018B11 S52aR (VHH, name in Kabat numbering, FLAG3-His6 tagged) VHH: EVQLVESGGGVVQPGGSLRLSCAASGFTFSSYAMYWVRQAPGKGLEWVSAISRGGGSTDYADSVKGRFTISRDNSKNTLYLQMNSLRPEDTALYYCAADTLYTSLTWYSYWGQGTLVTVSS = 0.13
• T0263018B11 G26M (VHH, name in Kabat numbering, FLAG3-His6 tagged) VHH: EVQLVESGGGVVQPGGSLRLSCAASMFTFSSYAMYWVRQAPGKGLEWVSAISSGGGSTDYADSVKGRFTISRDNSKNTLYLQMNSLRPEDTALYYCAADTLYTSLTWYSYWGQGTLVTVSS = 0.033
